Task for the reader: assign each of the following compounds its reported pKi.
# Test System: PKC delta kinase (Homo sapiens)
# Sequence (Q05655 whole entry): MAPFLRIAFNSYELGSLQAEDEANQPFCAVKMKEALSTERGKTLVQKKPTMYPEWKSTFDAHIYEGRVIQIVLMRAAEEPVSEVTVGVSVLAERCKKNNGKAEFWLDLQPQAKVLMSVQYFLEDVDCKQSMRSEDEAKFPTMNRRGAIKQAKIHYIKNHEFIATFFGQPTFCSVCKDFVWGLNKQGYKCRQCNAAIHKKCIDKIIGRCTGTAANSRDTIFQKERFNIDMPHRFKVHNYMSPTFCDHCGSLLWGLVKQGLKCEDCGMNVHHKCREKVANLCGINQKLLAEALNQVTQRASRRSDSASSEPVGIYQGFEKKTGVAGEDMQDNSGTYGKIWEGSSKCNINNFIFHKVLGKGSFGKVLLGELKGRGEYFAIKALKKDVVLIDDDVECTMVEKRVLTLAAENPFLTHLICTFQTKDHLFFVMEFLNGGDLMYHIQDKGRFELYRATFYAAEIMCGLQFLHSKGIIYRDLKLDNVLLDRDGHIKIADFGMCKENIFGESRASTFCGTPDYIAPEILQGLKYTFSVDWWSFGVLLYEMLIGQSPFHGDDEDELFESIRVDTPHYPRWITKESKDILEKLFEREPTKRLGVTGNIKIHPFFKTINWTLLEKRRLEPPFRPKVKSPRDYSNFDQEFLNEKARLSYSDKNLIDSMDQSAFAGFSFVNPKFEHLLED
# Test Method Notes: PKC delta kinase inhibition, coupled-enzyme (NADH absorbance) assay, Ki
# Assay type: biochemical
# Run Parameters: 150 μM ATP, 46 nM PKC delta kinase, 30° C.; read-out: Ki PKC delta
# Experimental: An assay buffer solution was prepared which consisted of 100 mM HEPES (pH 7.5), 10 mM MgCl2, 25 mM NaCl, 0.1 mM EDTA and 0.01% Brij. […] To 16 μL of this enzyme buffer, in a 384 well plate, was added 1 μL of VRT stock solution in DMSO. […] Initial rate data was determined from the rate of change of absorbance at 340 nm (corresponding to stoichiometric consumption of NADH) using a Molecular Devices Spectramax plate reader (Sunnyvale, Calif.) over 15 mins at 30° C. […]
pKi: −log10 of the molar value.

Please supply pKi for each of the following items, keeping them in order.
1. FC(F)(F)c1ccc(N2CCNCC2)nc1-c1n[nH]c2ncccc12
2. Cc1cc(C)c(CC2CN(c3cccc(-c4n[nH]c5ncccc45)n3)CCN2)c(C)c1 (stereo not drawn)
3. CC(C)CC1(C#N)CN(c2ccc(F)c(-c3n[nH]c4ncccc34)n2)C1
4. CS(=O)(=O)NCC1CCCN(c2ccc(C(F)(F)F)c(-c3n[nH]c4ncccc34)n2)C1 (stereo not drawn)
5. NC(=O)C1CN(c2ccc(C(F)(F)F)c(-c3n[nH]c4ncccc34)n2)CCN1 (stereo not drawn)
6. CC(C)(C)CC(N)C1CCCN(c2ccc(F)c(-c3n[nH]c4ncccc34)n2)C1 (stereo not drawn) [Compound 317]

1. > 5.55
2. < 5.70
3. < 5.90
4. < 5.90
5. < 5.90
6. < 5.90

* * *

pKi: −log10 of the molar value.
Record type: pKi measurement. Applies to: PKC theta kinase (Homo sapiens, UniProt Q04759)

compound=CC1(CN)CCN(c2ccc(C(F)(F)F)c(-c3n[nH]c4ncccc34)n2)CC1 endpoint_value="< 6.15"
compound=CC(C)C[C@H]1CN(c2ccc(C(F)(F)F)c(-c3n[nH]c4ncccc34)n2)CC(F)(F)CN1 endpoint_value="< 6.15"
compound=C[C@H]1CN(c2ccc(C(F)(F)F)c(-c3n[nH]c4ncccc34)n2)CCN1 endpoint_value="> 6.30"
compound="CC(C)CC1(CO)CN(c2ccc(F)c(-c3n[nH]c4ncccc34)n2)CCC1N (stereo not shown)" endpoint_value="> 7.30"
compound="CC1(N)CCCN(c2ccc(F)c(-c3n[nH]c4ncccc34)n2)C1 (stereo not shown)" endpoint_value="> 6.30"
compound=CCC[C@@H]1CN(c2cccc(-c3n[nH]c4ncccc34)n2)C[C@H](CC(C)C)N1 endpoint_value="> 7.30"
compound="CC(C)(C)C(N)C1CCN(c2ccc(F)c(-c3n[nH]c4ncccc34)n2)C1 (stereo not shown)" endpoint_value="> 7.30"
compound="CC(C)CC1(C)CN(c2ccc(C(F)(F)F)c(-c3n[nH]c4ncccc34)n2)CCC1N (stereo not shown)" endpoint_value="> 7.30"

Each compound below has a recorded value; state its pKi.
1. CCCC1CN(c2cccc(-c3n[nH]c4ncccc34)n2)CCN1 (stereo not shown)
2. CC(C)C[C@H]1CC(O)(c2cccc(-c3n[nH]c4ncccc34)n2)CCN1 (stereo partly shown)
3. NC1CCN(c2ccc(C(F)(F)F)c(-c3n[nH]c4ncccc34)n2)CC12CCCC2 (stereo not shown)
4. CC(F)(F)CC1CN(c2ccc(C(F)(F)F)c(-c3n[nH]c4ncccc34)n2)CCN1 (stereo not shown)
5. OCCC1CCCCN1c1ccc(C(F)(F)F)c(-c2n[nH]c3ncccc23)n1 (stereo not shown)

1. > 7.30
2. < 6.15
3. > 7.30
4. > 6.30
5. < 6.15

Required: pKi, one value per compound below.
1. c1cc(-c2n[nH]c3ncccc23)nc(N2CCNC3(CCC3)C2)c1
2. COC(C)C1CN(c2ccc(C(F)(F)F)c(-c3n[nH]c4ncccc34)n2)CCN1 (stereo not shown)
3. Fc1ccc(C2CN(c3ccc(C(F)(F)F)c(-c4n[nH]c5ncccc45)n3)CCN2)cc1 (stereo not shown)
4. CC(C)CC(N)C1CCCN(c2ccc(F)c(-c3n[nH]c4ncccc34)n2)C1 (stereo not shown)
5. CCOC[C@H]1CN(c2cccc(-c3n[nH]c4ncccc34)n2)CCN1
6. OC1CCCN(c2ccc(C(F)(F)F)c(-c3n[nH]c4ncccc34)n2)C1 (stereo not shown)
7. CC(C)C[C@H]1CN(c2cncc(-c3n[nH]c4ncccc34)n2)CCN1

1. > 7.30
2. > 6.30
3. > 6.30
4. > 7.30
5. > 6.30
6. < 6.15
7. > 7.30

Provide pKi for all items below, preserving their order.
1. CC(C)(C)C(N)C1CCCN(c2ccc(F)c(-c3n[nH]c4ncccc34)n2)C1 (stereo not shown) [Compound 307]
2. CC(C)C[C@H]1CN(c2ccc(F)c(-c3n[nH]c4ncccc34)n2)C[C@@H](C)N1

1: > 9.00; 2: > 7.30
